Where these numbers come from: ChEMBL document CHEMBL6103608

PROTOCOL NOTES: Inhibition of NRAS G12D mutant (unknown origin) expressed in human THP-1 cells assessed as reduction in ERK phosphorylation incubated for 2 hrs by AlphaLISA SureFire Ultra assay
Assay type: cell-based
CONDITION SET: THP-1, 2 h
METRIC: IC50
Please answer using the number first and the unit second.

Query: Entry C[C@@H]1OC2=NC(c3cc(N)cc(F)c3OC(F)(F)F)=C(F)C3C(Cl)=C(CCN(C)C)N=C(C23)N2C[C@H]3CC[C@H](N3)[C@@H]12 (stereo partly specified) : reported IC50 = ?
Reply: 0.803 nM
